Test system: Staphylococcus aureus X1.1
Assay: Antibiotic activity, standard agar-dilution assay (MIC)
Type: cell-based
Conditions: S. aureus X1.1
property: MIC

compound	value.reported
CCC1OC(=O)CC(O)C(C)C(OC2OC(C)C(OC3CC(C)(O)C(O)C(C)O3)C(N(C)C)C2O)C(CC=O)CC(C)C(=O)C=CC(C)=CC1CSc1ccccc1 (stereo not shown) [Compound 4, 23-Deoxy-23-(phenyl)thio-DMT]	0.5 µg/mL
CCC1OC(=O)CC(O)C(C)C(OC2OC(C)C(OC3CC(C)(O)C(O)C(C)O3)C(N(C)C)C2O)C(CC=O)CC(C)C(=O)C=CC(C)=CC1CN (stereo not shown) [Compound 2, 23-Deoxy-23-amino-DMT]	2 µg/mL
CCC1OC(=O)CC(O)C(C)C(OC2OC(C)C(OC3CC(C)(O)C(O)C(C)O3)C(N(C)C)C2O)C(CC=O)CC(C)C(=O)C=CC(C)=CC1CNC(=O)Cc1ccccc1 (stereo not shown) [Compound 3, 23-Deoxy-23-(phenylacetyl)amino-DMT]	0.5 µg/mL
CCC1OC(=O)CC(O)C(C)C(OC2OC(C)C(OC3CC(C)(O)C(O)C(C)O3)C(N(C)C)C2O)C(CC=O)CC(C)C(=O)C=CC(C)=CC1CN=[N+]=[N-] (stereo not shown) [Compound 1, 23-Deoxy-23-Azido-DMT]	0.25 µg/mL

----------
Recorded ED50 for the following molecules
System: Streptococcus pyogenes C203
Assay: ED50 in mice experimentally infected with S. pyogenes C203
Format: in vivo
Details: C203, sc, subcutaneous, doses given 1 and 4 hours postinfection
property: ED50 (mg/kg)

molecule	limit.qualifier	value.reported
CCC1OC(=O)CC(O)C(C)C(OC2OC(C)C(OC3CC(C)(O)C(O)C(C)O3)C(N(C)C)C2O)C(CC=O)CC(C)C(=O)C=CC(C)=CC1CNC(=O)Cc1ccccc1 (stereo not shown) [Compound 3, 23-Deoxy-23-(phenylacetyl)amino-DMT]	=	3.8
CCC1OC(=O)CC(O)C(C)C(OC2OC(C)C(OC3CC(C)(O)C(O)C(C)O3)C(N(C)C)C2O)C(CC=O)CC(C)C(=O)C=CC(C)=CC1CN (stereo not shown) [Compound 2, 23-Deoxy-23-amino-DMT]	<	1.5
CCC1OC(=O)CC(O)C(C)C(OC2OC(C)C(OC3CC(C)(O)C(O)C(C)O3)C(N(C)C)C2O)C(CC=O)CC(C)C(=O)C=CC(C)=CC1CN=[N+]=[N-] (stereo not shown) [Compound 1, 23-Deoxy-23-Azido-DMT]	=	10.5
CCC1OC(=O)CC(O)C(C)C(OC2OC(C)C(OC3CC(C)(O)C(O)C(C)O3)C(N(C)C)C2O)C(CC=O)CC(C)C(=O)C=CC(C)=CC1CSc1ccccc1 (stereo not shown) [Compound 4, 23-Deoxy-23-(phenyl)thio-DMT]	<	25

----------
Tested on: Pasteurella hemolytica 23C

molecule	target.entity	MIC
CCC1OC(=O)CC(O)C(C)C(OC2OC(C)C(OC3CC(C)(O)C(O)C(C)O3)C(N(C)C)C2O)C(CC=O)CC(C)C(=O)C=CC(C)=CC1CNC(=O)Cc1ccccc1 (stereo not shown)	Pasteurella hemolytica 23C	25 µg/mL
CCC1OC(=O)CC(O)C(C)C(OC2OC(C)C(OC3CC(C)(O)C(O)C(C)O3)C(N(C)C)C2O)C(CC=O)CC(C)C(=O)C=CC(C)=CC1CSc1ccccc1 (stereo not shown)	Pasteurella hemolytica 23C	25 µg/mL
CCC1OC(=O)CC(O)C(C)C(OC2OC(C)C(OC3CC(C)(O)C(O)C(C)O3)C(N(C)C)C2O)C(CC=O)CC(C)C(=O)C=CC(C)=CC1CN=[N+]=[N-] (stereo not shown)	Pasteurella hemolytica 23C	25 µg/mL
CCC1OC(=O)CC(O)C(C)C(OC2OC(C)C(OC3CC(C)(O)C(O)C(C)O3)C(N(C)C)C2O)C(CC=O)CC(C)C(=O)C=CC(C)=CC1CN (stereo not shown)	Pasteurella hemolytica 23C	12.5 µg/mL
